System: STK33
test-parameters: concentration: 1 μM, replicates: in singlicate; n = 1;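 also: KINOMEscan kinase panel screen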
Kindly supply the reported %Inh values for the records listed here.
Give bare numbers, in %.

| smiles | assayed-system | readout-units | %Inh |
| --- | --- | --- | --- |
| COc1cc(Nc2ccnc3ccc(C(F)(F)F)cc23)cc(OC)c1OC | STK33 | % | 15 |
| Cn1c(=O)c(F)c(Nc2ccc(I)cc2F)c2c(=O)n(OC[C@H](O)CO)cnc21 | STK33 | % | 0 |
| COc1cc(OC)cc(-c2cc3cnc(N)nc3nc2NC(=O)NC(C)(C)C)c1 | STK33 | % | 0 |
| COc1cc2ncn(-c3cc(OCCCc4ccccc4)c(C(N)=O)s3)c2cc1OC | STK33 | % | 0 |

Batch: %Inh for all items listed.
1. C[C@@H]1CC[C@H](C(=O)NC2CCCCC2)CN1c1cc(-c2ccc3c(N)n[nH]c3c2)nc(N)n1
2. Cc1c(Cn2c(C)nn3c(=O)cc(N4CCO[C@H](C)C4)nc23)cccc1C(F)(F)F
3. COc1ccc(-c2cc3c(C)nc(N)nc3n([C@H]3CC[C@H](OCCO)CC3)c2=O)cn1
4. COc1ccc(-c2coc3ccc(-c4nnc(SCc5cccc(C#N)c5)o4)cc23)cc1

1: 57; 2: 0; 3: 0; 4: 0

###

Would you mind telling me the reported %Inh of each entry?
Test system: EIF2AK1
test-parameters: concentration: 1 μM, replicates: in singlicate; n = 1
Answers are plain numbers, in %.

| smiles | readout-units | %Inh |
| --- | --- | --- |
| CCc1nc(-c2cccc(C)c2)c(-c2ccncc2)s1 | % | 9 |

Your task in this section: give %Inh for each listed record.
1. O=C(NCc1cccs1)c1cc(C(=O)c2c(Cl)cccc2Cl)c[nH]1
2. Cl.NS(=O)(=O)c1cccc(Nc2cc(-c3ccc(F)cc3)n[nH]2)c1
3. COc1cc(OC)cc(-c2cc3cnc(N)nc3nc2NC(=O)NC(C)(C)C)c1
4. Cc1ccccc1COc1cc(-n2cnc3cc(Cl)ccc32)sc1C(N)=O
5. Nc1ncnc2c1ncn2-c1cccc2ccccc12
6. Cn1c(=O)c(F)c(Nc2ccc(I)cc2F)c2c(=O)n(OC[C@H](O)CO)cnc21
7. CCC(=O)c1c(-c2ccccc2)c2cc(Cl)ccc2c(=O)n1Cc1cc(C(=O)NC2CC2)n(C)n1

0
0
4
6
0
0
0

Record COc1cccc(C2=C(Nc3cccc(C(=O)O)c3)C(=O)NC2=O)c1 . Reported %Inh: 0

###

Test system: NEK11
test-parameters: concentration: 1 μM, replicates: in singlicate; n = 1
reported-endpoint: %Inh (%)
Answers are plain numbers, in %.

| smiles | %Inh [%] |
| --- | --- |
| O=C(Nc1n[nH]c2nc(-c3ccccc3)c(Cl)cc12)C1CC1 | 11 |

Record %Inh per entry; entries follow.
1. Cn1c(=O)c(F)c(Nc2ccc(I)cc2F)c2c(=O)n(OC[C@H](O)CO)cnc21
2. Cc1cc(Nc2nc(-c3cccc(C)n3)nc3ccccc23)ccn1
3. Nc1ncnc2c1ncn2-c1cccc2ccccc12
4. COc1cc(Nc2ccnc3ccc(C(F)(F)F)cc23)cc(OC)c1OC

[0, 0, 27, 0]

###

Test system: PLK2
test-parameters: concentration: 1 μM, replicates: in singlicate; n = 1
Answer each item with its documented %Inh.
Please append the unit to your numeric answer.

Observe how each entry below is paired with its result.
| compound | assayed-system | %Inh |
| --- | --- | --- |
| COc1cc2ncn(-c3cc(OCc4ccc(S(C)(=O)=O)cc4)c(C(N)=O)s3)c2cc1OC | PLK2 | 98.9% |
| O=C(Nc1ccc2c(c1)OCO2)NC1CCN(c2ccnc(NCc3ccc(F)cc3)n2)CC1 | PLK2 | 0% |
| CCC(=O)c1c(-c2ccccc2)c2cc(Cl)ccc2c(=O)n1Cc1cc(C(=O)NC2CC2)n(C)n1 | PLK2 | 2% |
| Nc1ncnc2c1ncn2-c1cccc(F)c1 | PLK2 | 22% |
| Cn1c(=O)c(F)c(Nc2ccc(I)cc2F)c2c(=O)n(OC[C@H](O)CO)cnc21 | PLK2 | 0% |
| COc1ccc(-c2cc3c(C)nc(N)nc3n([C@H]3CC[C@H](O)CC3)c2=O)cn1 | PLK2 | 0% |

Hi team, please reply with %Inh for each item in this list.
1. COc1cc2nccc(Nc3cccc(Oc4ccccc4)c3)c2cc1OC.Cl
2. COc1cc(Nc2nccc(N3CCC(NC(=O)C4COc5ccccc5O4)C3)n2)cc(OC)c1OC (stereo not drawn)
3. COc1cc2ncn(-c3cc(OCc4ccncc4Br)c(C(N)=O)s3)c2cc1OC

1: 0%; 2: 0%; 3: 99.7%
